Entries and their measured Anti-CD28 Fab signal in the presence of CD28 follow.
target: Anti-CD28 Fab (SEQ ID NOs: 202, 203); assay: phage binding ELISA on captured Fab, competitor CD28 antigen;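 also: clonal phage supernatant binding in wells preincubated with CD28 antigen in blocking buffer, detected by HRP-conjugated anti-M13 antibody ELISA, compared with blocking buffer alone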
Sequence (VH, as listed by the source, chain 1 of 2): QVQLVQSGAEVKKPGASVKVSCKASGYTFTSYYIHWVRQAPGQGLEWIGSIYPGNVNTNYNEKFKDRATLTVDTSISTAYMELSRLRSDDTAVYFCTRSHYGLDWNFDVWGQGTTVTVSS
Sequence (VL, as listed by the source, chain 2 of 2): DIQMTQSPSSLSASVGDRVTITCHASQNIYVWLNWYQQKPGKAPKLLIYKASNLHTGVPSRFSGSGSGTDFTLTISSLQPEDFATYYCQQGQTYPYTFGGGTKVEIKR

BINDER	RESULT_VALUE
YCAGHASEYLQKCL [Phage-881]	0.06

## Input Give a short answer stating reported Anti-CD28 Fab signal in the presence of CD28 for YCSGHLPMYMAKCL [Phage-853] .
## Output 0.13

## Input Give me measured Anti-CD28 Fab signal in the presence of CD28, please, for this binder: YCDGHAGIYVLKCL [Phage-829]
## Output 0.08

## Input Return Anti-CD28 Fab signal in the presence of CD28 (reported value) for this binder: YCAGHDAEYMQKCL [Phage-876]
## Output 0.06

## Input Provide Anti-CD28 Fab signal in the presence of CD28 value for the following binder: YCAGHAQEYMRKCL [Phage-872]
## Output 0.07

## Input Return reported Anti-CD28 Fab signal in the presence of CD28. Input binder: YCDGHAAWYLQKCL [Phage-850]
## Output 0.07

## Input Given YCDGHSFEYMAKCL [Phage-794] , respond with its Anti-CD28 Fab signal in the presence of CD28.
## Output 0.06

## Input Annotate the binder YCEGHSSEYMVKCL [Phage-826] with its measured Anti-CD28 Fab signal in the presence of CD28.
## Output 0.06

## Input Write down Anti-CD28 Fab signal in the presence of CD28 measured for item YCDGHSKEYMSKCL [Phage-779]
## Output 0.07

## Input # return recorded Anti-CD28 Fab signal in the presence of CD28 for input YCFGHFPEYMAKCL [Phage-773]
## Output 0.07

## Input Tell us which Anti-CD28 Fab signal in the presence of CD28 value is on record for YCQGHALQYLQKCL [Phage-835]
## Output 0.08

## Input Hello, please tell me recorded Anti-CD28 Fab signal in the presence of CD28 for this one: YCEGHIKDYMTKCL [Phage-875]
## Output 0.08

## Input Please give measured Anti-CD28 Fab signal in the presence of CD28 of the following entry: YCAGHSVQYMYKCL [Phage-832]
## Output 0.06

## Input Give the measured Anti-CD28 Fab signal in the presence of CD28 for YCSGHSWAYIGKCL [Phage-775]
## Output 0.07

## Input Name the recorded Anti-CD28 Fab signal in the presence of CD28 of the item YCAGHMPQYMSKCL [Phage-834] in your answer.
## Output 0.05
